Would you kindly list kinase still bound, per cent of control for each of these compounds?
TESTED_SYSTEM: UniProt Q06418
Sequence (Q06418 whole entry, looked up): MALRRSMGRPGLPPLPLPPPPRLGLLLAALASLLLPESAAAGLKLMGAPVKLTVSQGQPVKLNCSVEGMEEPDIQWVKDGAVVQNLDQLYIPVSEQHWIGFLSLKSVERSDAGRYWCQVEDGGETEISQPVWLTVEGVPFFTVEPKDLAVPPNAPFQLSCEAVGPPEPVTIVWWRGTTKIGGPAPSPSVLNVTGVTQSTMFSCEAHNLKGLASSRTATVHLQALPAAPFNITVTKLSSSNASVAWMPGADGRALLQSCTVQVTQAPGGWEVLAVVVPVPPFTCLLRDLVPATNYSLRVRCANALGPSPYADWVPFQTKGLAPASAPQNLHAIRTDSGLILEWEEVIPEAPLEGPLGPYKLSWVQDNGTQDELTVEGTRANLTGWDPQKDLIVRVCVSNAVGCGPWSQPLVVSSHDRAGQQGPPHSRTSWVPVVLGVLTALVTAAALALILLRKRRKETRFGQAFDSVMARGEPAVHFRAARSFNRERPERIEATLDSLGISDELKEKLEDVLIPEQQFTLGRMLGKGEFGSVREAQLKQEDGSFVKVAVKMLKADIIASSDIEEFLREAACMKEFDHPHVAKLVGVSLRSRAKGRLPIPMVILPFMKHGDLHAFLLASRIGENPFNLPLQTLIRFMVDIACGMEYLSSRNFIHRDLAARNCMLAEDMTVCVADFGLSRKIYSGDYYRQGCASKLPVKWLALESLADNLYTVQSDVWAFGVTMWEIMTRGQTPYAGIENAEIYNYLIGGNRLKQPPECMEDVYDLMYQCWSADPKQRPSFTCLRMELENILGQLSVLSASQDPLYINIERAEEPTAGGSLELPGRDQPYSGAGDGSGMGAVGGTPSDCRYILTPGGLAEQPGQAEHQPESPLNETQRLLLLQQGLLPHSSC
ASSAY_METHOD_TEXT: KINOMEscan competition binding
RUN_CONDITIONS: compound 10.0 µM

Consider the reported kinase still bound, per cent of control for these compounds:
>  <COMPOUND_STRING>
COC(=O)Nc1ccc(-c2nc(N3CCOCC3)c3cnn(C4CCN(C(=O)OC)CC4)c3n2)cc1

>  <kinase still bound, per cent of control>
100%

$$$$
>  <COMPOUND_STRING>
COc1ccc(-c2ccc3c(N4CCOCC4)nc(N4C[C@@H](C)O[C@@H](C)C4)nc3n2)cc1CO

>  <kinase still bound, per cent of control>
100%

$$$$
>  <COMPOUND_STRING>
CC(C)n1nc(-c2cc3cc(O)ccc3[nH]2)c2c(N)ncnc21

>  <kinase still bound, per cent of control>
77%

$$$$

Consider now this further compound.
Q: // returns reported kinase still bound, per cent of control for input CCC(=O)N1CCN(c2ccc(-n3c(=O)ccc4cnc5ccc(-c6cnc7ccccc7c6)cc5c43)cc2C(F)(F)F)CC1
Ans: 31%

----------
Would you kindly list per cent of control for each of these compounds?
TESTED_SYSTEM: CDK18 (human) (UniProt Q07002)
Sequence (Q07002 whole entry, looked up): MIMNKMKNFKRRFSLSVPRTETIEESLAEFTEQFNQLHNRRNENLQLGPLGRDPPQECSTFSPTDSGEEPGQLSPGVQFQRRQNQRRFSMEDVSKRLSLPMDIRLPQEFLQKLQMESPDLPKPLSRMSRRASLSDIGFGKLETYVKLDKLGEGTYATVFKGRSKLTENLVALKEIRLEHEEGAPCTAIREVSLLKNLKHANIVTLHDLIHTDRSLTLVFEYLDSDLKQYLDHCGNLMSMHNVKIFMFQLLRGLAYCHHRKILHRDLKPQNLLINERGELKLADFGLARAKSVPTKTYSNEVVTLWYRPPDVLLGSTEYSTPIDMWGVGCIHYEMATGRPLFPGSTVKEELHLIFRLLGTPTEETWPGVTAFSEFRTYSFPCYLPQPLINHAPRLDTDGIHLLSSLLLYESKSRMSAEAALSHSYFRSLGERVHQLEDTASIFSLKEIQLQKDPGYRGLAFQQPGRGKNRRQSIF
ASSAY_METHOD_TEXT: KINOMEscan competition binding
RUN_CONDITIONS: compound 10.0 µM
Numbers only, in %.

>  <COMPOUND_STRING>
COC(=O)Nc1ccc(-c2nc(N3CCOCC3)c3cnn(C4CCN(C(=O)OC)CC4)c3n2)cc1

>  <TESTED_SYSTEM>
CDK18 (human) (UniProt Q07002)

>  <per cent of control / %>
100

$$$$
>  <COMPOUND_STRING>
CCC(=O)N1CCN(c2ccc(-n3c(=O)ccc4cnc5ccc(-c6cnc7ccccc7c6)cc5c43)cc2C(F)(F)F)CC1

>  <TESTED_SYSTEM>
CDK18 (human) (UniProt Q07002)

>  <per cent of control / %>
97

$$$$
>  <COMPOUND_STRING>
COc1ccc(-c2ccc3c(N4CCOCC4)nc(N4C[C@@H](C)O[C@@H](C)C4)nc3n2)cc1CO

>  <TESTED_SYSTEM>
CDK18 (human) (UniProt Q07002)

>  <per cent of control / %>
100

$$$$

Q: // returns reported per cent of control for input CC(C)n1nc(-c2cc3cc(O)ccc3[nH]2)c2c(N)ncnc21
Ans: 100

----------
TESTED_SYSTEM: UniProtKB Q13882
Sequence (Q13882 whole entry, looked up): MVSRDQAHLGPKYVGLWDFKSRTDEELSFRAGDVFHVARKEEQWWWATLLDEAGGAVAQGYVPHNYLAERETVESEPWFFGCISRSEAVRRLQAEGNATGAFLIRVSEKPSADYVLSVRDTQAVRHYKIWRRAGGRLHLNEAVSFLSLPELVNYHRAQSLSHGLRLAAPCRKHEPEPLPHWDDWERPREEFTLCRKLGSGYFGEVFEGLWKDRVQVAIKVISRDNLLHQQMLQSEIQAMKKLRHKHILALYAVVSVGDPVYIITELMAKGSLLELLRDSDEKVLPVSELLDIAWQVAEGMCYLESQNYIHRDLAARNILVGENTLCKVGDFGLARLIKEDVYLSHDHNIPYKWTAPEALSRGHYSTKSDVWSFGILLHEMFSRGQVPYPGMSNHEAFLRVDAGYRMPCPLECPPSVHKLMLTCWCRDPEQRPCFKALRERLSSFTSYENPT
ASSAY_METHOD_TEXT: KINOMEscan competition binding
RUN_CONDITIONS: compound 10.0 µM
MEASURE_NAME: kinase still bound, per cent of control (%)
Numbers only, in %.

>  <COMPOUND_STRING>
COc1ccc(-c2ccc3c(N4CCOCC4)nc(N4C[C@@H](C)O[C@@H](C)C4)nc3n2)cc1CO

>  <TESTED_SYSTEM>
UniProtKB Q13882

>  <UNIT_NAME>
%

>  <RESULT>
100

$$$$
>  <COMPOUND_STRING>
COC(=O)Nc1ccc(-c2nc(N3CCOCC3)c3cnn(C4CCN(C(=O)OC)CC4)c3n2)cc1

>  <TESTED_SYSTEM>
UniProtKB Q13882

>  <UNIT_NAME>
%

>  <RESULT>
88

$$$$
>  <COMPOUND_STRING>
CCC(=O)N1CCN(c2ccc(-n3c(=O)ccc4cnc5ccc(-c6cnc7ccccc7c6)cc5c43)cc2C(F)(F)F)CC1

>  <TESTED_SYSTEM>
UniProtKB Q13882

>  <UNIT_NAME>
%

>  <RESULT>
51

$$$$

Q: // returns reported kinase still bound, per cent of control for input CC(C)n1nc(-c2cc3cc(O)ccc3[nH]2)c2c(N)ncnc21
Ans: 32

----------
TESTED_SYSTEM: CAMK4 (human)
ASSAY_METHOD_TEXT: KINOMEscan competition binding
RUN_CONDITIONS: compound 10.0 µM
Would you kindly list kinase still bound, per cent of control for each of these compounds?
Answers are plain numbers, in %.

Consider the reported kinase still bound, per cent of control for these compounds:
>  <COMPOUND_STRING>
COc1ccc(-c2ccc3c(N4CCOCC4)nc(N4C[C@@H](C)O[C@@H](C)C4)nc3n2)cc1CO

>  <kinase still bound, per cent of control [%]>
100

$$$$
>  <COMPOUND_STRING>
COC(=O)Nc1ccc(-c2nc(N3CCOCC3)c3cnn(C4CCN(C(=O)OC)CC4)c3n2)cc1

>  <kinase still bound, per cent of control [%]>
100

$$$$
>  <COMPOUND_STRING>
CC(C)n1nc(-c2cc3cc(O)ccc3[nH]2)c2c(N)ncnc21

>  <kinase still bound, per cent of control [%]>
100

$$$$

Consider now this further compound.
Q: // returns reported kinase still bound, per cent of control for input CCC(=O)N1CCN(c2ccc(-n3c(=O)ccc4cnc5ccc(-c6cnc7ccccc7c6)cc5c43)cc2C(F)(F)F)CC1
Ans: 90

----------
TESTED_SYSTEM: JAK2 JH1 catalytic (human) (UniProt O60674)
Sequence (O60674 whole entry, looked up): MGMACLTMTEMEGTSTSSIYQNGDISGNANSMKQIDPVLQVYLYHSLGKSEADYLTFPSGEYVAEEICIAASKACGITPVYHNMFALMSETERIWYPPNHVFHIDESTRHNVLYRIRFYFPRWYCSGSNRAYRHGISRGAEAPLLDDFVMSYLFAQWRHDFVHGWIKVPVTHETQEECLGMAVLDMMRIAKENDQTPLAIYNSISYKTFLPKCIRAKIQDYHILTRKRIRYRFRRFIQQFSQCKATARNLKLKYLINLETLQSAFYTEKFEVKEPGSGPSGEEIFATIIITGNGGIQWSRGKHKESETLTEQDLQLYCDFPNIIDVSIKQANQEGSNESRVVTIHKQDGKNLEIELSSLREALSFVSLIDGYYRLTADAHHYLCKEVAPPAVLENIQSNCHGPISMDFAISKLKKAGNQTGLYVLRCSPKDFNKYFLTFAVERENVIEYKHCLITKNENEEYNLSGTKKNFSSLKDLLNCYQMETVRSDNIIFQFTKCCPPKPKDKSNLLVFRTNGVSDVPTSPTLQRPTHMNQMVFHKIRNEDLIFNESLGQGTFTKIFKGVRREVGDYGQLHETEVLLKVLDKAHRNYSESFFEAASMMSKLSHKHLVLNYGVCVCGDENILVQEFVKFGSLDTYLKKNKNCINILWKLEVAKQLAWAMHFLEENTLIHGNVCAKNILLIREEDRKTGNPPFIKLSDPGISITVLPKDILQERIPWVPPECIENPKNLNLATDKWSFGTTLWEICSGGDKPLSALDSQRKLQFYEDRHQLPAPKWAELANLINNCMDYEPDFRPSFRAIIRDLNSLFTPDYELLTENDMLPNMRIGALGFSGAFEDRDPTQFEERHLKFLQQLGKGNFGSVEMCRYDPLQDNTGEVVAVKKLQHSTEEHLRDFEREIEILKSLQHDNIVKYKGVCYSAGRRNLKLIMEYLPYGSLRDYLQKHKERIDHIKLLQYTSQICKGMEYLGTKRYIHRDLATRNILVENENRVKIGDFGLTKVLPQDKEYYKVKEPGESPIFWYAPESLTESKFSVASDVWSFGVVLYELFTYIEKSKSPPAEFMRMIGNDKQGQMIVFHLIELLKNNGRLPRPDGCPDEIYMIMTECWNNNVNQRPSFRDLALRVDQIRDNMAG
ASSAY_METHOD_TEXT: KINOMEscan competition binding
RUN_CONDITIONS: compound 10.0 µM
MEASURE_NAME: kinase still bound, per cent of control (%)
Give bare numbers, in %.

>  <COMPOUND_STRING>
COC(=O)Nc1ccc(-c2nc(N3CCOCC3)c3cnn(C4CCN(C(=O)OC)CC4)c3n2)cc1

>  <TESTED_SYSTEM>
JAK2 JH1 catalytic (human) (UniProt O60674)

>  <kinase still bound, per cent of control, %>
73

$$$$
>  <COMPOUND_STRING>
CC(C)n1nc(-c2cc3cc(O)ccc3[nH]2)c2c(N)ncnc21

>  <TESTED_SYSTEM>
JAK2 JH1 catalytic (human) (UniProt O60674)

>  <kinase still bound, per cent of control, %>
0.95

$$$$
>  <COMPOUND_STRING>
CCC(=O)N1CCN(c2ccc(-n3c(=O)ccc4cnc5ccc(-c6cnc7ccccc7c6)cc5c43)cc2C(F)(F)F)CC1

>  <TESTED_SYSTEM>
JAK2 JH1 catalytic (human) (UniProt O60674)

>  <kinase still bound, per cent of control, %>
65

$$$$

Consider now this further molecule.
Q: // returns reported kinase still bound, per cent of control for input COc1ccc(-c2ccc3c(N4CCOCC4)nc(N4C[C@@H](C)O[C@@H](C)C4)nc3n2)cc1CO
Ans: 71

----------
TESTED_SYSTEM: UniProt O14578
Sequence (O14578 whole entry, looked up): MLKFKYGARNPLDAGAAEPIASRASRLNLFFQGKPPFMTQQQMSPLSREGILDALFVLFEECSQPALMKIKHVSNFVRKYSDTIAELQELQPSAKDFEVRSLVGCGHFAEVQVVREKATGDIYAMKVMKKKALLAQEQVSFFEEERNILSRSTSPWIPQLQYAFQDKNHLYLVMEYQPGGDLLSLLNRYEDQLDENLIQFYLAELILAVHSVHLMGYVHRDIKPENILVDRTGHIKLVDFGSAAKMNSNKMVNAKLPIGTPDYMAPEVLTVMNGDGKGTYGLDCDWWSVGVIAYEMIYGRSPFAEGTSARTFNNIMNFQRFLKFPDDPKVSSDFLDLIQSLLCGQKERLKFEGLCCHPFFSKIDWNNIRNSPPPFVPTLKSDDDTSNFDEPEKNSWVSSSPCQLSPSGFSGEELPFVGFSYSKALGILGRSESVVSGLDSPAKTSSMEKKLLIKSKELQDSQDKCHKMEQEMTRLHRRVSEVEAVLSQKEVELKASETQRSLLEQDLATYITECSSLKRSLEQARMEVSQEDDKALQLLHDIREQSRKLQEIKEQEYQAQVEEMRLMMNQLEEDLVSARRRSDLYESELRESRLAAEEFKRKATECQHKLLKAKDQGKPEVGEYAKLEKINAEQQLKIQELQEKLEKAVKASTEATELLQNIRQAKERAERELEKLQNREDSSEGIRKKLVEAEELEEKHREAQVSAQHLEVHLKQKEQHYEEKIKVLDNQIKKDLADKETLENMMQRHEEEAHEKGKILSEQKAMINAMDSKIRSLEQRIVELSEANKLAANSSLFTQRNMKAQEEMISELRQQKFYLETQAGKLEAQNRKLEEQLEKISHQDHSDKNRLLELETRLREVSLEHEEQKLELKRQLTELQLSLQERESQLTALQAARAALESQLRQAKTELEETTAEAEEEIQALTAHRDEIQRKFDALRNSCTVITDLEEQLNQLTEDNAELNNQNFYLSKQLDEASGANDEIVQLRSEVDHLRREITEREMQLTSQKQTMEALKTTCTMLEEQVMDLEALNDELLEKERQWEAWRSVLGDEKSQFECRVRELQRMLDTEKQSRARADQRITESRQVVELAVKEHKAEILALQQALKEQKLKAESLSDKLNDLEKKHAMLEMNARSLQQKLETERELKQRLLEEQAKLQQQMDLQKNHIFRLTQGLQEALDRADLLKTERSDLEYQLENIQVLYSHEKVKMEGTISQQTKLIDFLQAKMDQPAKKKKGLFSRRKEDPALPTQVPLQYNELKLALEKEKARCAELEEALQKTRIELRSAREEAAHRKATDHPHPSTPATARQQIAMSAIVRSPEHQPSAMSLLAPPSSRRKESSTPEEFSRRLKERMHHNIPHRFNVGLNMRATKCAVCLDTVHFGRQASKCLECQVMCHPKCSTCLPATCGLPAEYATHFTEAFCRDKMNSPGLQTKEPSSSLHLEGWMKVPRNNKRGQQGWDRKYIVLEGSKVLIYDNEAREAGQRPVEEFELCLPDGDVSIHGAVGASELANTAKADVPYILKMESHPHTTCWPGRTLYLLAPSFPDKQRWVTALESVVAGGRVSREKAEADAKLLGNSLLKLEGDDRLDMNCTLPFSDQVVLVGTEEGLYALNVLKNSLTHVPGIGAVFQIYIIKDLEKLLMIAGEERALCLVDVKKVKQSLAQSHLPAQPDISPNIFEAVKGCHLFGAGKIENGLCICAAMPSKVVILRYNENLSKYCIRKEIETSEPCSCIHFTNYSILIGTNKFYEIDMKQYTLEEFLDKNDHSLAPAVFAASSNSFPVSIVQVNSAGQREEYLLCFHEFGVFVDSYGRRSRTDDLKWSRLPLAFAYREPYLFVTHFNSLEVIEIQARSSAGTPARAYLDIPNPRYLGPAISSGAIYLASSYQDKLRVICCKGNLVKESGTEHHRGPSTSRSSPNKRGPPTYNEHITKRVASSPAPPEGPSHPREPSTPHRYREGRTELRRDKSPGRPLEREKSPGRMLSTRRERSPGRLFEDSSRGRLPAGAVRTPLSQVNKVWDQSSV
ASSAY_METHOD_TEXT: KINOMEscan competition binding
RUN_CONDITIONS: compound 10.0 µM
MEASURE_NAME: kinase still bound, per cent of control (%)
Numbers only, in %.

Consider the reported kinase still bound, per cent of control for these compounds:
>  <COMPOUND_STRING>
COC(=O)Nc1ccc(-c2nc(N3CCOCC3)c3cnn(C4CCN(C(=O)OC)CC4)c3n2)cc1

>  <MEASURE_NAME>
kinase still bound, per cent of control

>  <RESULT>
98

$$$$
>  <COMPOUND_STRING>
COc1ccc(-c2ccc3c(N4CCOCC4)nc(N4C[C@@H](C)O[C@@H](C)C4)nc3n2)cc1CO

>  <MEASURE_NAME>
kinase still bound, per cent of control

>  <RESULT>
96

$$$$
>  <COMPOUND_STRING>
CC(C)n1nc(-c2cc3cc(O)ccc3[nH]2)c2c(N)ncnc21

>  <MEASURE_NAME>
kinase still bound, per cent of control

>  <RESULT>
66

$$$$

Q: // returns reported kinase still bound, per cent of control for input CCC(=O)N1CCN(c2ccc(-n3c(=O)ccc4cnc5ccc(-c6cnc7ccccc7c6)cc5c43)cc2C(F)(F)F)CC1
Ans: 59

----------
Would you kindly list kinase still bound, per cent of control for each of these compounds?
TESTED_SYSTEM: MARK4 (human) (UniProt Q96L34)
ASSAY_METHOD_TEXT: KINOMEscan competition binding
RUN_CONDITIONS: compound 10.0 µM

Consider the reported kinase still bound, per cent of control for these compounds:
>  <COMPOUND_STRING>
CC(C)n1nc(-c2cc3cc(O)ccc3[nH]2)c2c(N)ncnc21

>  <TESTED_SYSTEM>
MARK4 (human) (UniProt Q96L34)

>  <MEASURE_NAME>
kinase still bound, per cent of control

>  <RESULT>
82%

$$$$
>  <COMPOUND_STRING>
COc1ccc(-c2ccc3c(N4CCOCC4)nc(N4C[C@@H](C)O[C@@H](C)C4)nc3n2)cc1CO

>  <TESTED_SYSTEM>
MARK4 (human) (UniProt Q96L34)

>  <MEASURE_NAME>
kinase still bound, per cent of control

>  <RESULT>
84%

$$$$
>  <COMPOUND_STRING>
COC(=O)Nc1ccc(-c2nc(N3CCOCC3)c3cnn(C4CCN(C(=O)OC)CC4)c3n2)cc1

>  <TESTED_SYSTEM>
MARK4 (human) (UniProt Q96L34)

>  <MEASURE_NAME>
kinase still bound, per cent of control

>  <RESULT>
96%

$$$$

Q: // returns reported kinase still bound, per cent of control for input CCC(=O)N1CCN(c2ccc(-n3c(=O)ccc4cnc5ccc(-c6cnc7ccccc7c6)cc5c43)cc2C(F)(F)F)CC1
Ans: 100%

Data provenance: the kinase profiling compilation of Christmann-Franck et al. (2016)
